Target of assay: FGFR2 (Homo sapiens (Human), UniProt P21802)
Sequence (P21802 22-821): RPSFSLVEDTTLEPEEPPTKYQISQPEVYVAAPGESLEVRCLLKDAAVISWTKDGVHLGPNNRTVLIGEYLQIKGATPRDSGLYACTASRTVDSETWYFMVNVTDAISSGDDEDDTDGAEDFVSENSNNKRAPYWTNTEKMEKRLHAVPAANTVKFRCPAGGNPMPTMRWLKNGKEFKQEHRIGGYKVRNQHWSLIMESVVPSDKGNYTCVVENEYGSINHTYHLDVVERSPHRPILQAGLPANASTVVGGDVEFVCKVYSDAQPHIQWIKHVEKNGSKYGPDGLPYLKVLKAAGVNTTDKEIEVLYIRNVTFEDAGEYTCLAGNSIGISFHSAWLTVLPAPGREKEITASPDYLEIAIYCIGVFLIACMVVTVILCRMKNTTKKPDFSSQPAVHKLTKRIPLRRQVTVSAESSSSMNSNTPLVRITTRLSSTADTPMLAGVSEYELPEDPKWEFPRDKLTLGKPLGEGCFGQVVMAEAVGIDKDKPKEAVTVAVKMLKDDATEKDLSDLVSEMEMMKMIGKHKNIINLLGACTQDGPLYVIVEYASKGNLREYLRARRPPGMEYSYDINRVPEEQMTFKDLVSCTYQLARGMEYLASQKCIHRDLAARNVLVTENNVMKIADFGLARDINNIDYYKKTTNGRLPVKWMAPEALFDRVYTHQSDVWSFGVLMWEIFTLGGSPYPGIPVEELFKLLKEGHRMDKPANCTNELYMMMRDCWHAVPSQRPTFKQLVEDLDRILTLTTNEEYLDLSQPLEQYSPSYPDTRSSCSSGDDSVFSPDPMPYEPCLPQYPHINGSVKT
Method notes: Biochemical FGFR2 Caliper assay
Recorded endpoint: IC50

Task: Consider the compound shown here: C#Cc1cc(C)c(-c2c(-c3ccc(Oc4nccc(C)n4)c(F)c3)c3c(N)ncnc3n2[C@H]2C[C@H](O)C2)cn1 (atropisomer, axis not shown) What is its recorded IC50?
Result: < 100 nM

Task: GET /values?readout=IC50&item= C=C(C)C(=O)Nc1ccc(-c2c(-c3cnn(-c4cccc(C(F)(F)F)c4)c3)c3c(N)ncnc3n2C)cc1
Result: 1000 to 100000 nM

Task: IC50 lookup needed for C#Cc1ncc(-c2c(-c3ccc(Oc4nccc(C)n4)c(F)c3)c3c(N)ncnc3n2C)c(OC)c1F , thanks.
Result: < 100 nM

----------
# maps each entry to its IC50
Target of assay: FGFR2 (Homo sapiens (Human))
Method notes: FGFR2 Biochemical Caliper Assay

# Compound, IC50
data = [
    ("C=CC(=O)N1CCC(n2cc(-c3c(-c4ccc(Oc5ncccn5)cc4)c4c(N)ncnc4n3C)cn2)CC1 [Example 633]", "100 to 250 nM"),
    ("C=C(C)C(=O)Nc1ccc(-c2c(-c3ccc(Oc4nccc(C)n4)c(F)c3)c3c(N)ncnc3n2C2CCCO2)cc1 (centres unmarked) [Example 524]", "< 100 nM"),
    ("Cn1c(-c2ccc(N3CCC=CS3(=O)=O)cc2)c(-c2ccc(C(=O)N3CCCC3)cc2)c2c(N)ncnc21 [Example 544]", "1000 to 100000 nM"),
    ("C=C(C)C(=O)Nc1ccc(-c2c(-c3ccc(Oc4ncc(N(C)C)cn4)cc3)c3c(N)ncnc3n2C)cc1 [Example 456]", "250 to 1000 nM"),
    ("C=C(C)C(=O)Nc1ccc(-c2c(-c3ccc(C(=O)NC4CCOC4)c(OC)c3)c3c(N)ncnc3n2C)cc1 (centres unmarked) [Example 386]", "< 100 nM"),
    ("Cn1c(-c2ccc(NC(=O)C3=CCC3)cc2)c(-c2ccc(C(=O)N3CCCC3)cc2)c2c(N)ncnc21 [Example 512]", "< 100 nM"),
]

Task: I have this compound here, CC#CC(=O)N1CCC(c2c(-c3ccc(C(=O)N4CCCC4)cc3)c3c(N)ncnc3n2C)C1 (centres unmarked) [Example 747] , and I need its recorded IC50.
Result: < 100 nM

Task: State the recorded IC50 for this entry: C=CC(=O)N1CCC(c2[nH]c3ncnc(N)c3c2-c2ccc(Oc3ncccn3)cc2)C1 (centres unmarked) [Example 709]
Result: < 100 nM

----------
Listing: IC50 of selected molecules
Target of assay: UniProt:P21802
Method notes: FGFR2 Biochemical Caliper Assay

Guide cases for IC50, answers given:
# Molecule, Target of assay, Reported value
records = [
    ("C=CC(=O)N1CC=C(c2c(-c3ccc(Oc4ncccn4)c(OC)c3)c3c(N)ncnc3n2C)CC1", "UniProt:P21802", "< 100 nM"),
    ("C=C(C)C(=O)Nc1ccc(-c2c(-c3ccc(C(=O)N4CC[C@H](OC)C4)cc3)c3c(N)ncnc3n2C)cc1", "UniProt:P21802", "1000 to 100000 nM"),
    ("C=C(C)C(=O)Nc1ccc(-c2c(-c3ccc(C(=O)N4CC(C5CCOC5)C4)cc3)c3c(N)ncnc3n2C)cc1 (centres unmarked)", "UniProt:P21802", "1000 to 100000 nM"),
    ("C=C(C)C(=O)Nc1ccc(-c2c(-c3ccc(CN4CCN(C)CC4)cc3)c3c(N)ncnc3n2C)cc1", "UniProt:P21802", "1000 to 100000 nM"),
    ("C/C(=C\\CN(C)C)C(=O)N1CC(n2cc(-c3c(-c4ccc(Oc5cccc(C)n5)cc4)c4c(N)ncnc4n3C)cn2)C1", "UniProt:P21802", "250 to 1000 nM"),
    ("C=C(C)C(=O)Nc1ccc(-c2c(-c3ccc(S(C)(=O)=O)cc3C)c3c(N)ncnc3n2C)cc1", "UniProt:P21802", "1000 to 100000 nM"),
    ("C=C(COC)C(=O)Nc1ccc(-c2c(-c3ccc(Oc4cccc(C)n4)cc3)c3c(N)ncnc3n2C)cc1", "UniProt:P21802", "< 100 nM"),
    ("C=C(C)C(=O)Nc1ccc(-c2c(-c3ccc(C(=O)NCCO)cc3)c3c(N)ncnc3n2C)cc1", "UniProt:P21802", "250 to 1000 nM"),
]

Task: Consider the molecule C=CC(=O)N1CCC(c2c(-c3ccc(NC4CCOCC4)cc3)c3c(N)ncnc3n2C)C1 (centres unmarked) and give its measured IC50.
Result: 1000 to 100000 nM

Task: Quick one: IC50 of C=CC(=O)N1CCC(c2[nH]c3ncnc(N)c3c2-c2ccc(Oc3ccc(C)cn3)cc2)C1 (centres unmarked) ?
Result: 100 to 250 nM

Task: Sample C=CC(=O)N1CCC(c2c(-c3ccn(Cc4ccccc4)c(=O)c3)c3c(N)ncnc3n2C)C1 (centres unmarked) — what was its IC50?
Result: 100 to 250 nM

Task: Given the entry C=CC(=O)N1CCC(c2c(-c3ccc(CN4CCOCC4=O)cc3)c3c(N)ncnc3n2C)C1 (centres unmarked) , report its measured IC50.
Result: 1000 to 100000 nM

Task: GET /values?readout=IC50&item= C=C(C)C(=O)N1CCC(c2c(-c3ccc(Oc4cccc(C)n4)cc3)c3c(N)ncnc3n2C)CC1
Result: 250 to 1000 nM

Task: Can you look up the measured IC50 of C=C(C)C(=O)Nc1ccc(-c2c(-c3ccc(-c4nnc(NC)s4)cc3)c3c(N)ncnc3n2C)cc1 for me?
Result: 100 to 250 nM

Task: Could you tell me which IC50 is on file for C=C(C)C(=O)Nc1ccc(-c2c(-c3c(F)cc(Oc4nccc(C)n4)cc3F)c3c(N)ncnc3n2C)cc1 ?
Result: < 100 nM

Task: Recorded IC50 for C=C(C)C(=O)Nc1ccc(-c2c(-c3ccc(C(=O)NCCF)cc3)c3c(N)ncnc3n2C)cc1 , please?
Result: < 100 nM

Task: Recorded IC50 for C=CC(=O)N1CC=C(c2c(-c3ccc(Oc4ncccn4)cc3)c3c(N)ncnc3n2C)C1 , please?
Result: < 100 nM

Task: Need IC50 of C=CC(=O)N1CCC(c2c(-c3ccc(C(=O)N4CCSC4)cc3)c3c(N)ncnc3n2C)C1 (centres unmarked) , thanks.
Result: 250 to 1000 nM

Task: Given C=C(C)C(=O)Nc1ccc(-c2c(-c3ccc(C(=O)N4CCCC4)cc3C)c3c(N)ncnc3n2C)cc1 , state its recorded IC50.
Result: 1000 to 100000 nM

Task: Bench note: what IC50 did C=C(C)C(=O)Nc1ccc(-c2c(-c3ccc(C(=O)N4CCCC4)cc3)c3c(N)ncnc3n2C)c(CC)c1 [Example 477] show?
Result: 100 to 250 nM

Task: Entry C=C(C)C(=O)Nc1ccc(-c2c(-c3ccc(C(=O)N4CCCCC4COC)cc3)c3c(N)ncnc3n2C)cc1 (centres unmarked) : reported IC50 = ?
Result: < 100 nM

Task: Entry C=C(C)C(=O)Nc1ccc(-c2c(-c3ccc(C(=O)N(C)CC4CCOC4)cc3)c3c(N)ncnc3n2C)cc1 (centres unmarked) has what IC50?
Result: 250 to 1000 nM

----------
Target of assay: FGFR2 (Homo sapiens (Human))
Method notes: Biochemical FGFR2 Caliper assay
pIC50: −log10 of the molar value.
Recorded endpoint: pIC50

# Compound, Recorded endpoint, Reported value
records = [
    ("C=CC(=O)N1CCC(c2c(-c3ccc(CC4CCCC4)cc3)c3c(N)ncnc3n2C)C1 (stereo not drawn)", "pIC50", "6.00 to 6.60"),
    ("CC1=C[C@H](C)N(c2ccc(-c3c(-c4ccc(Oc5nccc(C)n5)cc4)c4c(N)ncnc4n3C)cc2)C1=O", "pIC50", "> 7.00"),
    ("C#Cc1cc(C)c(-c2c(C3=CC[C@H](C(=O)N4CCCC45COC5)CC3)c3c(N)ncnc3n2C)cn1 (single isomer, unassigned)", "pIC50", "6.00 to 6.60"),
    ("C=C(C)C(=O)Nc1ccc(-c2c(C3=CC[C@H](C(=O)N4CCCC4)CC3)c3c(N)ncnc3n2C)c(F)c1", "pIC50", "> 7.00"),
    ("C#Cc1cc(C)c(-c2c(C3=CC[C@@H](C(=O)N4CCC[C@H]4C#N)CC3)c3c(N)ncnc3n2C)c(C)n1 (atropisomer, axis not shown)", "pIC50", "> 7.00"),
]

From here, focus on the item given below.
Task: Form: Entry = C#Cc1ccc(-c2c(C3=CC[C@@H](C(=O)N4CCC[C@H]4C#C)CC3)c3c(N)ncnc3n2C)c(C)n1 (single isomer, unassigned) | System = FGFR2 (Homo sapiens (Human)) | pIC50 = ____
Result: > 7.00
